Documented Kd across a set of binders
Target: T1, PUF4 RNA-binding domain (Saccharomyces cerevisiae, UniProt P25339 537-888)
T1 sequence: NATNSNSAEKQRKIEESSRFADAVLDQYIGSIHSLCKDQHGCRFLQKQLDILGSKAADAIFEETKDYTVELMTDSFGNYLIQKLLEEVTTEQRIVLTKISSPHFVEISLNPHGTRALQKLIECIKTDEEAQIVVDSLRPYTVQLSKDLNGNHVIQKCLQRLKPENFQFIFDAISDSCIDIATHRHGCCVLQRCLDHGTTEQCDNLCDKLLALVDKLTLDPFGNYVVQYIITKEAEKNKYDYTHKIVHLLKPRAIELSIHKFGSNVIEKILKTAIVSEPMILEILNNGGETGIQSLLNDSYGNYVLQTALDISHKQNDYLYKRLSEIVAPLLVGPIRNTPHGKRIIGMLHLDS
Test: Mg; RNA-MaP; 20 mM Na-HEPES pH 7.4, 30 mM KOAc, 0.75 mM MgCl2, 0.1% Tween-20, 5% glycerol, 0.1 mg/mL BSA, 2 mM DTT; 25 C; 0.0125-409.6 nM protein
Details: tags: N-His6-TEV cleaved; C-SNAP kept, Cy3B-labelled; label: tethered on chip by stalled RNA polymerase
Enter your answer as a number in µM; do not include the unit.

Known Kd results, listed for orientation:
binder	experimental_value
UCUCUUUGUAUUACCUUCUCUU (ssRNA) [Ic_S1_P5E.1_K5.1_C5.1_H5.1_A5.1_F5.1_[T8C]_[T9C]_[A10T]_T5.1]	0.495
UCUCUUUGUAGUCCAUCUCUU (ssRNA) [Ic_S1_P4E.1_K4.1_C4.1_H4.1_A4.1_[T5G]_[A6T]_[T7C]_F4.1_[T8C]_T4.1]	1.51

// below: Kd requested for another binder
Inquiry: Name the reported Kd value associated with the binder Ic_S4_P3E.1_K3.1_C3.1_H3.1_A3.1_[T5A]_F3.1_[A8T]_T3.1 (ssRNA) RNA: UUUGACAACUGAUCGUUCUUUCUUGUAAAUUUUCUUUCUCGAUCAGUUGUCUUU
Reply text: 0.0193
